# target_desc: ERα (Homo sapiens, UniProt P03372)
# Construct: expressed in transfected cells
# Sequence (P03372 whole entry, species assumed): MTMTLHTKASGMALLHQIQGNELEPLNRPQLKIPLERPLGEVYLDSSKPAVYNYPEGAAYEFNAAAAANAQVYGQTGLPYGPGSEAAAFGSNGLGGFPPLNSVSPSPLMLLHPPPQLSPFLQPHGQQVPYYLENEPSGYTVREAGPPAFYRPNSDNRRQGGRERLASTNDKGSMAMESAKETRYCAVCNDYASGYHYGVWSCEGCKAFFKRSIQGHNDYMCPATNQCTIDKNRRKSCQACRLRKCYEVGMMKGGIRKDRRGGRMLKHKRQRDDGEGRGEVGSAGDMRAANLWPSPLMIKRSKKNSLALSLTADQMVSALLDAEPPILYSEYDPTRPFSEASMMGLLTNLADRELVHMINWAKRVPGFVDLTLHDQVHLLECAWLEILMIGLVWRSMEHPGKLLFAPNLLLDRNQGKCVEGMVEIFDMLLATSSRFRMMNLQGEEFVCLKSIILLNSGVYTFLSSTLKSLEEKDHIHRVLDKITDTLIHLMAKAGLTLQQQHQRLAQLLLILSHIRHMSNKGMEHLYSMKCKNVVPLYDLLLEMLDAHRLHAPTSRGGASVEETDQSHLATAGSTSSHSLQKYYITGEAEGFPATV
# protocol_details: Counterscreening, Firefly signal with ERα transient transfection (Firefly_ERa)
# Type: cell-based
# condition_context: ERα transient transfection, 10 μM, repeat 2
observation_type: Firefly_ERa, cmpd/DMSO repeat 2

Some compounds with recorded Firefly_ERa, cmpd/DMSO repeat 2:
{"columns": ["compound", "target_desc", "result_value"],
 "data": [
  ["CCc1ccc(OCC(=O)Nc2cc(-c3nc4cc(C)ccc4o3)ccc2C)cc1 [Compound 24]", "ERα (Homo sapiens, UniProt P03372)", 1.6],
  ["CCc1cccc(Nc2cnn(-c3nc4ccccc4s3)c(=O)c2Cl)c1 [Compound C7]", "ERα (Homo sapiens, UniProt P03372)", 0.5],
  ["COc1cc(Nc2c3c(nc4ccc(Cl)cc24)CCC3)cc(OC)c1OC [Compound C10]", "ERα (Homo sapiens, UniProt P03372)", 1.3],
  ["Cc1ccc(-c2nc3ccccc3c(=O)[nH]2)cc1 [Compound C3]", "ERα (Homo sapiens, UniProt P03372)", 1.9],
  ["Cc1cc(NC(=O)CCS(=O)(=O)c2nc(-c3ccc4c(c3)OCO4)cc(C(F)(F)F)n2)no1 [Compound C1]", "ERα (Homo sapiens, UniProt P03372)", 1.0]
]}

[P] COc1ccc(-c2cc(C(F)(F)F)nc(S(=O)(=O)CCCC(=O)Nc3sc4c(c3C(N)=O)CCCC4)n2)cc1OC [Compound C2]
[Q] CCc1cc(C(=O)Nc2ccn(Cc3ccc(C)cc3)n2)no1 [Compound C6]
[R] Cc1ccn2cc(-c3ccc(F)cc3)cc2c1 [Compound 17]
List the 3 entries from lowest Firefly_ERa, cmpd/DMSO repeat 2 to highest Firefly_ERa, cmpd/DMSO repeat 2 value. Kindly provide the labels arranged according to the requested ordering.
P, Q, R
(P: 0.8, Q: 1.4, R: 2.2)
